Experiment: CellTiter-Glo luminescent readout of SW480 viability loss, NPC library primary (AID 1117343)
Settings: CellTiter-Glo luminescence; at 20 µM (top of the series)
Activity calls are given as the source filed them.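 The calls were made as follows: active = compounds that lower viability of the colon cancer cells in the luminescence readout, with no numeric limit stated; inactive = the rest.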 Non-standard residues stand in square brackets, D forms with d. Residues, ends and D or L forms follow the SMILES beside them. pGlu = O=C1CC[C@@H](C(=O)O)N1
Outcomes: 1 (yes) (active), 0 (no) (inactive)

| compound | category |
| --- | --- |
| N#C/C(=C1/SC[C@@H](c2ccc(Cl)cc2Cl)S1)n1ccnc1 | 1 (yes) |
| COc1ccc(/C=C/C(=O)c2ccc(OC)cc2OC)cc1 | 1 (yes) |
| CC(=O)[C@H]1CC[C@H]2[C@@H]3C[C@H](C)C4=CC(=O)CC[C@]4(C)[C@H]3[C@@H](O)C[C@]12C | 0 (no) |
| C/C(=C1\CCOC(=O)S1)N(C=O)Cc1cnc(C)nc1N | 0 (no) |
| C[C@]12CCC(=O)C=C1CC[C@@H]1[C@@H]2C(=O)C[C@@]2(C)[C@H]1CC[C@]2(O)C(=O)CO | 0 (no) |
| C=Cc1c(C)c2cc3nc(cc4[nH]c(cc5nc(cc1[nH]2)C(C)=C5CCC(=O)O)c(CCC(=O)OC)c4C)[C@@]1(C)C3=CC=C(C(=O)OC)[C@@H]1C(=O)OC | 1 (yes) |
| C/C(=C(\CCO)SS/C(CCO)=C(\C)N(C=O)Cc1cnc(C)nc1N)N(C=O)Cc1cnc(C)nc1N | 0 (no) |
| c1ccc2sc(SSc3nc4ccccc4s3)nc2c1 | 0 (no) |
| CCOc1ccccc1O[C@H](c1ccccc1)[C@H]1CNCCO1 | 0 (no) |
| CCN(CC)CCOc1ccc(C(O)(Cc2ccc(Cl)cc2)c2ccc(C)cc2)cc1 (stereo not drawn) | 1 (yes) |
| COc1ccccc1OCCNCC(O)COc1cccc2[nH]c3ccccc3c12 (stereo not drawn) | 1 (yes) |
| CCNC(=O)[C@@H]1CCCN1C(=O)[C@H](CCCN=C(N)N)NC(=O)[C@H](CC(C)C)NC(=O)CNC(=O)[C@H](Cc1ccc(O)cc1)NC(=O)[C@H](CO)NC(=O)[C@H](Cc1c[nH]c2ccccc12)NC(=O)[C@H](Cc1cnc[nH]1)NC(=O)[C@@H]1CCC(=O)N1 ([pGlu]HWSYGLRP-NHEt) | 0 (no) |
| NCCNc1ccc(NCCN)c2c1C(=O)c1ccncc1C2=O | 0 (no) |
| Cn1c(=O)c2[nH]cnc2n(C)c1=O | 0 (no) |
| Cc1c(Cn2ccnc2)c2ccccc2n1CCC(=O)O | 1 (yes) |
| CN(C)[C@@H]1C(=O)C(C(N)=O)=C(O)[C@@]2(O)C(=O)C3=C(O)c4c(O)cccc4C[C@H]3C[C@@H]12 | 1 (yes) |
| Cc1cccc(C)c1NC(=O)c1cc(S(N)(=O)=O)c(Cl)cc1O | 0 (no) |
| CCCN(CCC)S(=O)(=O)c1ccc(C(=O)O)cc1 | 0 (no) |
